# System: HIV-1 strain LAI
# assay_procedure: Cellular anti-HIV assay (MT4/MTT), wild type
# Type: cell-based
# test_parameters: Human immunodeficiency virus 1; wild type HIV-1 strain LAI, MT4 cells; read-out: WT (pEC50) (converted)
Please note: EC50 exactly at 3 nM is n. Only values below 3 nM get y.

Would you kindly verify if EC50 of CNc1nc2ccc(S(=O)(=O)N(CC(C)C)C[C@@H](O)[C@H](Cc3ccccc3)NC(=O)COc3c(C)cc(CN)cc3C)cc2s1 is strictly less than 3 nM? n

Please do the same for CNc1nc2ccc(S(=O)(=O)N(CC(C)C)C[C@@H](O)[C@H](Cc3ccccc3)NC(=O)OC3COC4OCCC34)cc2s1 (stereo partly drawn) as well. y

Please do the same for CNc1nc2ccc(S(=O)(=O)N(CC(C)C)C[C@@H](O)[C@H](Cc3ccccc3)NC(=O)OCc3cnco3)cc2s1 as well. y

Please do the same for CC(C)CN(C[C@@H](O)[C@H](Cc1ccccc1)NC(=O)OCc1cccnc1)S(=O)(=O)c1ccc2nc(N)sc2c1 as well. n

Please do the same for Cc1c(N)cccc1C(=O)N[C@@H](Cc1ccccc1)[C@H](O)CN(CC(C)C)S(=O)(=O)c1ccc2nc(N)sc2c1 as well. n

Please do the same for Cc1c(O)cccc1C(=O)N[C@@H](Cc1ccccc1)[C@H](O)CN(CC(C)C)S(=O)(=O)c1ccc2nc(N)sc2c1 as well. n
